# experiment-description: In vivo pharmacokinetics in rats
# Parameters: species or system rat
# experimental-parameters: male, Sprague-Dawley, plasma; Rat, PO, 10 mg kg^-1; read-out: Tmax
reported-endpoint: Tmax
A bare number is not enough; add the unit after it.

According to the records, this molecule Cc1n[nH]c2ncc(C#Cc3cncc(C(=O)Nc4ccc(CN5CCN(C)CC5)c(C(F)(F)F)c4)c3)cc12 displays Tmax of 4 h

---

# study-system: B/KR(G810S) cells, KIF5B-RET G810S (Homo sapiens, UniProt P07949+P33176, G810S)
# Construct: FLAG
# Sequence (P07949 713-1063 G810S limits assumed, one chain of several): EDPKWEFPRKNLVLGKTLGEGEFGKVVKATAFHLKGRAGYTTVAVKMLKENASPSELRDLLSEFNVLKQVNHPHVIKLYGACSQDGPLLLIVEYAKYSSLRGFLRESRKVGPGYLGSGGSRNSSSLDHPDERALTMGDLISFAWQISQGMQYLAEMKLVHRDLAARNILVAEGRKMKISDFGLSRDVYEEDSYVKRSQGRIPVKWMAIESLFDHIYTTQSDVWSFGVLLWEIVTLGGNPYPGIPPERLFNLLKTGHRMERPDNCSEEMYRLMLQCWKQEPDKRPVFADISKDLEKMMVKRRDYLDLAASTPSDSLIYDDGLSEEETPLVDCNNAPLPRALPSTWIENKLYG
# experiment-description: Cell viability assay (CellTiter-Glo, 3 days) in B/KR(G810S) cells
reported-endpoint: IC50 (nM)
Answers are plain numbers, in nM.

1. Cc1n[nH]c2ncc(C#Cc3cncc(C(=O)Nc4ccc(CN5CCN(C)CC5)c(C(F)(F)F)c4)c3)cc12 [HSND19]
4
2. COc1cc2cc(-c3ccc(CC(=O)Nc4cc(C(C)(C)C(F)(F)F)no4)cn3)cnc2cc1OC [Zeteletinib, reference compound]
73.1

Record CCOc1ccc2ncc(C#Cc3cncc(C(=O)Nc4ccc(CN5CCN(C)CC5)c(C(F)(F)F)c4)c3)n2n1 [HSND14] , field IC50: 5.21
